# System: Wolbachia pipientis
# test: Anti-Wolbachia Cell-Based Screen
# Type: functional
# Set-up: scale not given: in the data most compounds retested in dose-response had high values
# test.parameters: 5 µM
In all, about 48,000 compounds went through this assay and about 13,000 (27%) showed an effect of 50% or more. Some of the results follow.
assay.readout: Percent Effect (%)

>>> data_value("CC(C)(C)NC(=O)N1CCC(NC(=O)Cc2cccnc2)CC1")
-14.05
>>> data_value("O=C(NC1CCCN(CCCc2ccccc2)C1)C1=CCCCC1 (configuration not stated)")
81.9
>>> data_value("CC(C)C(=O)NCC(=O)N(C)C1CCCN(CCc2ccccc2)C1 (configuration not stated)")
-4.152
>>> data_value("Nc1cc(C(=O)NC2CCCN(CCCc3ccccc3)C2)ccn1 (configuration not stated)")
96.33
>>> data_value("COCCn1cnc2ccc(NC(=O)CCCn3cccn3)cc2c1=O")
181
>>> data_value("Cc1nnn2c1COC(CNCc1ccccn1)C2.O=C(O)C(F)(F)F (configuration not stated)")
-4.028
>>> data_value("CN(C(=O)c1cccnc1)C1CCCN(CCc2ccccc2)C1 (configuration not stated)")
-6.072
>>> data_value("CC(C)c1nc(NC(=O)CCCn2cccc2)n(C)n1")
-8.102
>>> data_value("CN(C(=O)c1ccc[nH]1)C1CCC(NC(=O)OC(C)(C)C)CC1 (configuration not stated)")
-42.92
>>> data_value("COC(=O)CC(NC(=O)CCCn1cccn1)c1ccc(Cl)cc1 (configuration not stated)")
-43.24
>>> data_value("O=C(Cc1cccnc1)NC1CCCN(CCCc2ccccc2)C1 (configuration not stated)")
124.1
>>> data_value("CSCC(=O)N1CCc2[nH]nc(-c3ccc4c(c3)OCO4)c2C1")
-14.59

###

Documented Percent Effect across a set of molecules
# System: Wolbachia pipientis
# test: Anti-Wolbachia Cell-Based Screen
# Assay type: functional
# Design: scale not given: in the data most compounds retested in dose-response had high values
# test.parameters: 5 µM
The whole screen tested about 48,000 compounds, of which about 13,000 (27%) showed an effect of 50% or more. The list shows a part of the results.
assay.readout: Percent Effect (%)

>>> data_value("O=C(c1cccnc1O)N1CCOC(c2ccc(Cl)cc2)C1 (stereo unspecified)")
-6.348
>>> data_value("Cc1cccc(CC(=O)NC2CCN(C(=O)NC(C)(C)C)CC2)c1")
5.736
>>> data_value("O=C(c1cccnc1N1CCCC1)N1CCOC(c2ccccc2)C1 (stereo unspecified)")
5.885
>>> data_value("CN(C)Cc1ccnc(C2CCCN2Cc2ccc(F)cn2)n1 (stereo unspecified)")
110.9
>>> data_value("Cc1ccc(C(=O)NCCCNS(C)(=O)=O)c(=O)[nH]1")
10.14
>>> data_value("Cc1ccc(C(=O)N2CCOC(c3ncc(CN(C)C)[nH]3)C2)cc1F (stereo unspecified)")
86.38
>>> data_value("Cc1ccc(C(=O)NC2CCCN(S(C)(=O)=O)C2)c(=O)[nH]1 (stereo unspecified)")
107.3
>>> data_value("CCOCC(=O)N1CCC2(CC1)CC(c1ccccc1)CO2 (stereo unspecified)")
118.3
>>> data_value("Cc1n[nH]c(C2CN(C(=O)c3ccn(C)c(=O)c3)CCO2)n1 (stereo unspecified)")
0.6849
>>> data_value("CS(=O)(=O)c1ccc(OCCNCc2ccc(F)cc2)cc1")
-11.24
>>> data_value("CN(C)Cc1cnc(C2CN(C(=O)c3ccccc3Cl)CCO2)[nH]1 (stereo unspecified)")
174.9
>>> data_value("CN(C)Cc1ccnc(C2CCCN2Cc2cccc(F)c2F)n1 (stereo unspecified)")
111
>>> data_value("CCN1CCC2(CC1)CN(C(C)=O)c1ccc(C)cc12")
-4.945
>>> data_value("Cc1cnc(N2CCCn3c(nnc3CN(C)C(C)C)C2)nc1.O=C(O)C(F)(F)F")
99.73
>>> data_value("Cc1ccc(CC(=O)N2CCOC(c3nc(C)n[nH]3)C2)cn1 (stereo unspecified)")
12.26
>>> data_value("CC(c1ccc(F)cc1)n1ccnc1-c1cc2n(n1)CCCNC2 (stereo unspecified)")
-9.513
>>> data_value("COc1cccc2c1OCCCN(c1nc(N)nc3c1CCNC3)C2")
-2.498
>>> data_value("CNC(=O)C1CCCN(c2nc(-c3ccco3)nc3c2CCNCC3)C1 (stereo unspecified)")
-9.477
>>> data_value("Cn1cc(C2CCCN2C(=O)CCCOCc2ccccc2)cn1 (stereo unspecified)")
2.254
>>> data_value("Cc1nnsc1C(=O)N(C)Cc1nc(-c2ccccn2)no1")
-8.145
>>> data_value("CCCn1cc(CN2CCCC2c2nccc(CN(C)C)n2)cn1 (stereo unspecified)")
91.04
>>> data_value("COCC(NC(=O)NCc1cccc(Cl)c1)c1ccco1 (stereo unspecified)")
4.656
>>> data_value("CCC(=O)N1CCC2(CC1)CC(Oc1ccccc1)CO2 (stereo unspecified)")
-6.284
>>> data_value("CN(C)Cc1ccnc(C2CCCN2Cc2cc[nH]n2)n1 (stereo unspecified)")
-4.978
>>> data_value("Cc1ccc(CC(=O)N2CCOC(c3ncc(CN(C)C)[nH]3)C2)s1 (stereo unspecified)")
104.7
>>> data_value("Cc1cnc(N2CCn3c(CN4CCOCC4)nnc3C2)nc1.O=C(O)C(F)(F)F")
-6.202
>>> data_value("CC(=O)N1CCC2(CC1)CN(C(=O)c1cccnc1)c1ccc(F)cc12.O=C(O)C(F)(F)F")
91.49
>>> data_value("Cc1cnn(CC2CCCN2CC(=O)N(C)Cc2cnn(C)c2)c1 (stereo unspecified)")
-0.6585
>>> data_value("O=C(CCCC1CCCC1)NS(=O)(=O)CC1CC1")
4.87
>>> data_value("CC(=O)N1CCC2(CC1)C(=O)N(c1cccnc1)c1ccc(F)cc12")
-4.26
>>> data_value("Nc1nc2c(c(N3CCCC(c4nnc5ccccn45)C3)n1)CCNC2 (stereo unspecified)")
-10.49
>>> data_value("O=C(O)C(F)(F)F.O=C(c1ccccc1)N1CCC[C@]2(C[C@@H](OCc3ccncc3)CO2)C1")
6.805
>>> data_value("O=C(CC1CC1)N1CCC2(CC1)CC(Oc1ccccc1)CO2 (stereo unspecified)")
-7.215
>>> data_value("CCOCC(=O)NC1(c2cccc(Br)c2)CC1")
-23.15
>>> data_value("Cc1n[nH]c(C2CN(C(=O)c3coc(Br)c3)CCO2)n1 (stereo unspecified)")
-34.21
>>> data_value("Cn1cc(C2CN(C(=O)Cc3coc(-c4ccccc4)n3)CCO2)cn1 (stereo unspecified)")
-11.89
>>> data_value("Cc1cncc(C(=O)N2Cc3ccccc3C3(CCN(C)CC3)C2)c1")
-5.03
>>> data_value("O=C(Cc1ccncc1)N1CCC2(CC1)CC(c1ccccc1)CO2.O=C(O)C(F)(F)F (stereo unspecified)")
104.1
>>> data_value("CNC(=O)[C@@H]1CN(C(=O)C(C)C)C[C@H]1c1ccnc(N2CCCC2)n1.Cl")
109.4
>>> data_value("Cc1ccccc1C(=O)N1CCOC(c2ncc(CN(C)C)[nH]2)C1 (stereo unspecified)")
53.49
>>> data_value("Cn1cc(C2CCCN2Cc2csc(C(C)(C)C)n2)cn1 (stereo unspecified)")
3.745
>>> data_value("CCCNC(=O)c1ccc2c(c1)C(=O)N(CC(C)C)C2=O")
12.13
>>> data_value("COc1ccc(S(=O)(=O)NCCC(O)c2cc(C)oc2C)c(C)c1 (stereo unspecified)")
2.617
>>> data_value("c1cn(Cc2nnc(C3CCN(C4CCNCC4)CC3)n2C2CC2)cn1")
-5.551
>>> data_value("CC1CCN(Cc2cnc(S(=O)(=O)CC3CC3)n2CC2CCCO2)CC1 (stereo unspecified)")
3.735
>>> data_value("COC(=O)C1CN(CC(=O)Nc2ccccc2Cl)c2ccccc21 (stereo unspecified)")
8.149

Data provenance is ChEMBL document CHEMBL3988442.
